The values you see were collected from PubChem BioAssay AID651828.

Kindly supply the reported % bound values for the records listed here.
Target: Nucleoprotein (Rift valley fever virus (strain ZH-548 M12)) (UniProt P21700)
Sequence (P21700 whole entry, looked up): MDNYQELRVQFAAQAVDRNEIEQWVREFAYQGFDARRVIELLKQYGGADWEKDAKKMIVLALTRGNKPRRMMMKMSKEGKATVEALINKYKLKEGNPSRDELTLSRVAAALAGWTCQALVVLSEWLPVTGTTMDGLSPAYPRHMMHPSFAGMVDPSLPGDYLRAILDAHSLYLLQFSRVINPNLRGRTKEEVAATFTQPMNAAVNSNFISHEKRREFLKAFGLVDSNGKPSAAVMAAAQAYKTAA
Test: inhibitors of RVFV nucleoprotein–RNA binding, primary screen, biochemical, fluorescence polarization (AID 651828)
Settings: RVFV N-RNA binding, hits give low values, concentration not given here
The whole screen tested about 20,000 compounds, of which about 25 (0.1%) were called active. The full list was thinned out, with actives kept by preference.

## Input For "O=C(c1cccs1)c1coc2c1cc(O)c1ccccc12" , write its % bound.
## Output 94.6% (inactive)

## Input Give % bound for "O=C(CC12CC3CC(CC(C3)C1)C2)Nc1ccc(N2CCN(C(=O)c3ccco3)CC2)cc1"
## Output 89.8% (inactive)

## Input Please list % bound recorded for the compound "O=c1[nH]c(=S)[nH]c(O)c1C=NC12CC3CC(CC(C3)C1)C2"
## Output 91.6% (inactive)

## Input Using the record for "O=C(NCCc1ccccc1)Nc1ccccc1" , state its measured % bound.
## Output 108% (inactive)

## Input Give me measured % bound, please, for this compound: CC(c1ccccc1)n1c(SCc2nc(-c3ccc(C(C)(C)C)cc3)no2)n[nH]c1=O (stereo unspecified)
## Output 95.1% (inactive)

## Input Quote % bound reported for "OC1CCN(Cc2ccc[nH]2)CC1" please.
## Output 95% (inactive)

## Input Tell me % bound reported for CN(C)c1ccc(C=NCC(O)CN=Cc2ccc(N(C)C)cc2)cc1 (stereo unspecified)
## Output 97.1% (inactive)

## Input Tell me its % bound given "O=c1[nH][nH]c(=O)n1/N=C/C=C\c1ccccc1" as the entry.
## Output 101% (inactive)

## Input Give the value of % bound reported for the following: "CP(=O)(O)CN1CCN(CP(C)(=O)O)CC1"
## Output 93% (inactive)

## Input Answer with the recorded % bound of "CSc1sc(C(=O)NC(=O)NCc2cccnc2)c(C)c1-c1ccon1" only.
## Output 93.2% (inactive)

## Input Output measured % bound for this item: "C=CCN(CC=C)C(=O)c1ccc(N2C(=O)CCC2=O)cc1"
## Output 95.1% (inactive)
